Numbers sourced from ChEMBL document CHEMBL1134694.

# Species: Homo sapiens
# Assay Method Text: Binding affinity against human serum protein
# Format: functional
The threshold is inclusive: Bound of exactly 40% counts as true; values below receive false.

Smiles	Qualitative Label
O=C1NCCCC[C@@H](C(=O)NCC(=O)N2CCOCC2)NC(=O)[C@H](Cc2ccc(-c3cc(Cl)cc(Cl)c3)cc2)[C@@H](C(=O)NO)CCCO1	true
CS(=O)(=O)c1ccccc1-c1ccc(C[C@H]2C(=O)N[C@H](C(=O)NCC(=O)N3CCOCC3)CCCCNC(=O)OCCC[C@@H]2C(=O)NO)cc1	false
CNC(=O)CNC(=O)[C@@H]1CCCCNC(=O)OCCC[C@H](C(=O)NO)[C@@H](Cc2ccc(-c3ccccc3C(F)(F)F)cc2)C(=O)N1	false
O=C1NCCCC[C@@H](C(=O)NCC(=O)N2CCNCC2)NC(=O)[C@H](Cc2ccc(-c3cccc(C(F)(F)F)c3)cc2)[C@@H](C(=O)NO)CCCO1	false
O=C1NCCCC[C@@H](C(=O)NCC(=O)N2CCOCC2)NC(=O)[C@H](Cc2ccc(-c3ccccc3C(F)(F)F)cc2)[C@@H](C(=O)NO)CCCO1	true
O=C1NCCCC[C@@H](C(=O)NCC(=O)N2CCOCC2)NC(=O)[C@H](Cc2ccc(-c3c(F)cccc3F)cc2)[C@@H](C(=O)NO)CCCO1	false
O=C1NCCCC[C@@H](C(=O)NCC(=O)N2CCNCC2)NC(=O)[C@H](Cc2ccc(-c3ccccc3C(F)(F)F)cc2)[C@@H](C(=O)NO)CCCO1	false
CC(C)C[C@H]1C(=O)N[C@H](C(=O)NCC(=O)N2CCOCC2)CCCCNC(=O)OCCC[C@@H]1C(=O)NO	false
O=C1NCCCC[C@@H](C(=O)NCC(=O)N2CCNCC2)NC(=O)[C@H](Cc2ccc(-c3cc(C(F)(F)F)cc(C(F)(F)F)c3)cc2)[C@@H](C(=O)NO)CCCO1	true

* * *

# Target Desc: Collagenase 3 (Homo sapiens)
Reported Metric: Ki (nM)

Smiles	Reported Metric	Unit Info	Result Number
O=C1NCCCC[C@@H](C(=O)NCC(=O)N2CCNCC2)NC(=O)[C@H](Cc2ccc(-c3ccccc3C(F)(F)F)cc2)[C@@H](C(=O)NO)CCCO1	Ki	nM	50

* * *

# Target Desc: Neutrophil collagenase (Homo sapiens)
# Sequence (P22894 whole entry): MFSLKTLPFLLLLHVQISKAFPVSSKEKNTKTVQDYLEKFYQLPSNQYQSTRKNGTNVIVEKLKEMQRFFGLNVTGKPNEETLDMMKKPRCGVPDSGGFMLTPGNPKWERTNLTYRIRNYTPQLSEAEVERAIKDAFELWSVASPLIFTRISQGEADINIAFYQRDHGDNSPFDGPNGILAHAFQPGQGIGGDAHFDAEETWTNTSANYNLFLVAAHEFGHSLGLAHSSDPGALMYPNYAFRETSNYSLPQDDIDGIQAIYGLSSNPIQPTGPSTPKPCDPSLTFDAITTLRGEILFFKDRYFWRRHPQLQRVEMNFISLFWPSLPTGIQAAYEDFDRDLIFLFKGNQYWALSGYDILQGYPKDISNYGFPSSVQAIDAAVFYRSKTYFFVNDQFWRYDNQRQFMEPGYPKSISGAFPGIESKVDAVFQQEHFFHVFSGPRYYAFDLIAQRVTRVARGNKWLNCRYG
# Assay Method Text: Inhibition of matrix metalloprotease-8
pKi: −log10 of the molar value.

Smiles	Target Desc	pKi
O=C1NCCCC[C@@H](C(=O)NCC(=O)N2CCOCC2)NC(=O)[C@H](Cc2ccc(-c3ccccc3C(F)(F)F)cc2)[C@@H](C(=O)NO)CCCO1	Neutrophil collagenase (Homo sapiens)	6.90
O=C1NCCCC[C@@H](C(=O)NCC(=O)N2CCNCC2)NC(=O)[C@H](Cc2ccc(-c3cc(C(F)(F)F)cc(C(F)(F)F)c3)cc2)[C@@H](C(=O)NO)CCCO1	Neutrophil collagenase (Homo sapiens)	6.57
O=C1NCCCC[C@@H](C(=O)NCC(=O)N2CCNCC2)NC(=O)[C@H](Cc2ccc(-c3ccccc3C(F)(F)F)cc2)[C@@H](C(=O)NO)CCCO1	Neutrophil collagenase (Homo sapiens)	6.17
NC(=O)CNC(=O)[C@@H]1CCCCNC(=O)OCCC[C@H](C(=O)NO)[C@@H](Cc2ccc(-c3ccccc3C(F)(F)F)cc2)C(=O)N1	Neutrophil collagenase (Homo sapiens)	6.37

* * *

Stromelysin-2 (Homo sapiens, UniProt P09238): recorded Ki for assorted molecules
Sequence (P09238 whole entry): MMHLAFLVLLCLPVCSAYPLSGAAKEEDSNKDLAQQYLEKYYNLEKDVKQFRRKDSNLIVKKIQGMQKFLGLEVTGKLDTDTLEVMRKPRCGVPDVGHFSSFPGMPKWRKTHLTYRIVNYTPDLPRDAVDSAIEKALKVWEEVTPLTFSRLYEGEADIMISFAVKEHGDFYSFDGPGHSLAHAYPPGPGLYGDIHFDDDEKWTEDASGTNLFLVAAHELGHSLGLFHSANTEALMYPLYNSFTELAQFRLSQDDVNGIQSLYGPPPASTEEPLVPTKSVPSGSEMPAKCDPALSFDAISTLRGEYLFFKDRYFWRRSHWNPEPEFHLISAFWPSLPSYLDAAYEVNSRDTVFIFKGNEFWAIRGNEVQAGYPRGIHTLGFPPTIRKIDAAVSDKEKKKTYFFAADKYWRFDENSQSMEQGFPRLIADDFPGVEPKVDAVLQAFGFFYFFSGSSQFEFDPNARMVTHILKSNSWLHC
Reported Metric: Ki

Smiles	Reported Metric	Result
O=C1NCCCC[C@@H](C(=O)NCC(=O)N2CCOCC2)NC(=O)[C@H](Cc2ccc(-c3ccccc3C(F)(F)F)cc2)[C@@H](C(=O)NO)CCCO1	Ki	> 2000 nM
NC(=O)CNC(=O)[C@@H]1CCCCNC(=O)OCCC[C@H](C(=O)NO)[C@@H](Cc2ccc(-c3ccccc3C(F)(F)F)cc2)C(=O)N1	Ki	> 2000 nM
O=C1NCCCC[C@@H](C(=O)NCC(=O)N2CCNCC2)NC(=O)[C@H](Cc2ccc(-c3ccccc3C(F)(F)F)cc2)[C@@H](C(=O)NO)CCCO1	Ki	> 2000 nM

* * *

# Target Desc: Matrix metalloproteinase-16 (Homo sapiens, UniProt P51512)
# Sequence (P51512 whole entry): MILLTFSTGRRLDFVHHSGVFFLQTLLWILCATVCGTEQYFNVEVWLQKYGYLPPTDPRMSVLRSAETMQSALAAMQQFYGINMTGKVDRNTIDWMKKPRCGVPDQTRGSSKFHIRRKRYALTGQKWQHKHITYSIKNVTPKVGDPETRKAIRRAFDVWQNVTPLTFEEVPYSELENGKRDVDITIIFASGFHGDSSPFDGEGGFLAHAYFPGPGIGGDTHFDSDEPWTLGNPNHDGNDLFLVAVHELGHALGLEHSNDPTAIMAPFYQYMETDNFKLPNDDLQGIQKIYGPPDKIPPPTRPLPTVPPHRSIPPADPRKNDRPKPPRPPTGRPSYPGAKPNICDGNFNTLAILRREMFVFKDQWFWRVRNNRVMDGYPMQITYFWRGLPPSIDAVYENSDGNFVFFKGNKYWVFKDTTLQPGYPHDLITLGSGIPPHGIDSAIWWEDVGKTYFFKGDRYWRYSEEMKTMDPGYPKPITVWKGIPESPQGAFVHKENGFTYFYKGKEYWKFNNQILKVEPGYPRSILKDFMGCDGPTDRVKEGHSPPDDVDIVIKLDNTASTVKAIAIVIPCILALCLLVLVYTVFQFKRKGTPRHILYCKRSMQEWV
Ki values, listed per item

Smiles	Ki
O=C1NCCCC[C@@H](C(=O)NCC(=O)N2CCNCC2)NC(=O)[C@H](Cc2ccc(-c3ccccc3C(F)(F)F)cc2)[C@@H](C(=O)NO)CCCO1	> 2 µM
O=C1NCCCC[C@@H](C(=O)NCC(=O)N2CCNCC2)NC(=O)[C@H](Cc2ccc(-c3cc(C(F)(F)F)cc(C(F)(F)F)c3)cc2)[C@@H](C(=O)NO)CCCO1	> 2 µM
O=C1NCCCC[C@@H](C(=O)NCC(=O)N2CCOCC2)NC(=O)[C@H](Cc2ccc(-c3ccccc3C(F)(F)F)cc2)[C@@H](C(=O)NO)CCCO1	> 2 µM

* * *

Ki values, listed per item
# Target Desc: Matrix metalloproteinase-9 (Homo sapiens)
# Sequence (P14780 whole entry): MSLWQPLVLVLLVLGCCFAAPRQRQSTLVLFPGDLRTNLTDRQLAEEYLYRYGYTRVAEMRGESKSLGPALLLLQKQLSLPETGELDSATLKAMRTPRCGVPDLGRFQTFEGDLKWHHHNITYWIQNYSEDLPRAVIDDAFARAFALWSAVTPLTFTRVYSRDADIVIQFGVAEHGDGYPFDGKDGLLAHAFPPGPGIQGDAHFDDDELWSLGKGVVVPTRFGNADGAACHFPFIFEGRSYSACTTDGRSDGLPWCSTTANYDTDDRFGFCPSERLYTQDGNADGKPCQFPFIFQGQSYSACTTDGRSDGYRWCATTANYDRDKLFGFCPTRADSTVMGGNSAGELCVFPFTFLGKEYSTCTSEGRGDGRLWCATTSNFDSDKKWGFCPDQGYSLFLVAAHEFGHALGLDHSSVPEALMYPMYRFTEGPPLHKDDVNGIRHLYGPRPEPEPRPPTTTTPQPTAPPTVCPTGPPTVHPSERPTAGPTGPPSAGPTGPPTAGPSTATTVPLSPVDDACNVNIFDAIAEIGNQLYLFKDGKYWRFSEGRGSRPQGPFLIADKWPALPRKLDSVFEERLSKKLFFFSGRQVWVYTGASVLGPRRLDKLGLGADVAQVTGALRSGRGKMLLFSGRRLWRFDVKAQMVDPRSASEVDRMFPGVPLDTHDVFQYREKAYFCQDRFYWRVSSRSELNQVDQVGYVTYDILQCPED

Smiles	Target Desc	Ki
O=C1NCCCC[C@@H](C(=O)NCC(=O)N2CCOCC2)NC(=O)[C@H](Cc2ccc(-c3ccccc3C(F)(F)F)cc2)[C@@H](C(=O)NO)CCCO1	Matrix metalloproteinase-9 (Homo sapiens)	> 2000 nM
CS(=O)(=O)c1ccccc1-c1ccc(C[C@H]2C(=O)N[C@H](C(=O)NCC(=O)N3CCOCC3)CCCCNC(=O)OCCC[C@@H]2C(=O)NO)cc1	Matrix metalloproteinase-9 (Homo sapiens)	> 2000 nM
CNC(=O)CNC(=O)[C@@H]1CCCCNC(=O)OCCC[C@H](C(=O)NO)[C@@H](Cc2ccc(-c3ccccc3C(F)(F)F)cc2)C(=O)N1	Matrix metalloproteinase-9 (Homo sapiens)	1170 nM

* * *

# Target Desc: 72 kDa type IV collagenase (Homo sapiens, UniProt P08253)
# Sequence (P08253 whole entry): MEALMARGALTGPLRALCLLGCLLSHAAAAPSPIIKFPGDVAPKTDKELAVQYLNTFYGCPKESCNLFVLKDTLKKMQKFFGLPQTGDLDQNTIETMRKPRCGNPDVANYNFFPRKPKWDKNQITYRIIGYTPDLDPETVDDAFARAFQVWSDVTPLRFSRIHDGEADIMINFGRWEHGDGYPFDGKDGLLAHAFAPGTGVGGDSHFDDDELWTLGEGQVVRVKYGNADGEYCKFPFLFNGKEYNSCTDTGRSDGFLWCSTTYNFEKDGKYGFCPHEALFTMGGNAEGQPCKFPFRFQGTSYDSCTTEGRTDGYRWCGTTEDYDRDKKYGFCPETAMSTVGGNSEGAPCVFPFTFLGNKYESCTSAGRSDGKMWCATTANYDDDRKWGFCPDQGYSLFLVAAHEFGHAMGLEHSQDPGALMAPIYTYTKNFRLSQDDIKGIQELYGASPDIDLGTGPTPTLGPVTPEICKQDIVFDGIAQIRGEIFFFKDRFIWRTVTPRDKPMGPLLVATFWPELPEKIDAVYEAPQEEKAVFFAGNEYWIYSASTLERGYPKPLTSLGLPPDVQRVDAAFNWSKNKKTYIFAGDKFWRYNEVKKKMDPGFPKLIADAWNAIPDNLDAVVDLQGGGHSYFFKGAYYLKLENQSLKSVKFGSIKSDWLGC
pKi: −log10 of the molar value.
pKi values, listed per item

Smiles	Qualifier Sign	pKi
CS(=O)(=O)c1ccccc1-c1ccc(C[C@H]2C(=O)N[C@H](C(=O)NCC(=O)N3CCOCC3)CCCCNC(=O)OCCC[C@@H]2C(=O)NO)cc1	<	5.70
O=C1NCCCC[C@@H](C(=O)NCC(=O)N2CCNCC2)NC(=O)[C@H](Cc2ccc(-c3cccc(C(F)(F)F)c3)cc2)[C@@H](C(=O)NO)CCCO1	=	7.96
O=C1NCCCC[C@@H](C(=O)NCC(=O)N2CCOCC2)NC(=O)[C@H](Cc2ccc(-c3ccccc3C(F)(F)F)cc2)[C@@H](C(=O)NO)CCCO1	<	5.70
O=C1NCCCC[C@@H](C(=O)NCC(=O)N2CCOCC2)NC(=O)[C@H](Cc2ccc(-c3cc(Cl)cc(Cl)c3)cc2)[C@@H](C(=O)NO)CCCO1	=	7.30
O=C1NCCCC[C@@H](C(=O)NCC(=O)N2CCOCC2)NC(=O)[C@H](Cc2ccc(-c3c(F)cccc3F)cc2)[C@@H](C(=O)NO)CCCO1	=	9.19
CNC(=O)CNC(=O)[C@@H]1CCCCNC(=O)OCCC[C@H](C(=O)NO)[C@@H](Cc2ccc(-c3ccccc3C(F)(F)F)cc2)C(=O)N1	=	6.35

* * *

Stromelysin-1 (Homo sapiens): recorded Ki for assorted compounds
Sequence (P08254 whole entry): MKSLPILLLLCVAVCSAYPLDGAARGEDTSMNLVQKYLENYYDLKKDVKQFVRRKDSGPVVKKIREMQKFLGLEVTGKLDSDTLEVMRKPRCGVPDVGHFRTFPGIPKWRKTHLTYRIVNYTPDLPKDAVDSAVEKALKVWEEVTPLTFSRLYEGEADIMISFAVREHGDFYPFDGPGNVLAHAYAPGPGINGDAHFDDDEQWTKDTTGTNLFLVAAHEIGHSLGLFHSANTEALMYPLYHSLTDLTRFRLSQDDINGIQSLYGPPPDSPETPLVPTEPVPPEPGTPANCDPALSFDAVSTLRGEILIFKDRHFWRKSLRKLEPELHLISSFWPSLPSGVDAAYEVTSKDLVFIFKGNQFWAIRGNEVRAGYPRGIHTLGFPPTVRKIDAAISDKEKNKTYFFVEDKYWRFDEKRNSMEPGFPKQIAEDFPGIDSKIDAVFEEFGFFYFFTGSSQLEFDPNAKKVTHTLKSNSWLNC

Smiles	Unit Info	Qualifier Sign	Ki
NC(=O)CNC(=O)[C@@H]1CCCCNC(=O)OCCC[C@H](C(=O)NO)[C@@H](Cc2ccc(-c3ccccc3C(F)(F)F)cc2)C(=O)N1	nM	>	2000
O=C1NCCCC[C@@H](C(=O)NCC(=O)N2CCNCC2)NC(=O)[C@H](Cc2ccc(-c3ccccc3C(F)(F)F)cc2)[C@@H](C(=O)NO)CCCO1	nM	=	582

* * *

# Target Desc: Disintegrin and metalloproteinase domain-containing protein 17 (Sus scrofa, UniProt O77636)
# Sequence (O77636 whole entry, the tested form may be a part): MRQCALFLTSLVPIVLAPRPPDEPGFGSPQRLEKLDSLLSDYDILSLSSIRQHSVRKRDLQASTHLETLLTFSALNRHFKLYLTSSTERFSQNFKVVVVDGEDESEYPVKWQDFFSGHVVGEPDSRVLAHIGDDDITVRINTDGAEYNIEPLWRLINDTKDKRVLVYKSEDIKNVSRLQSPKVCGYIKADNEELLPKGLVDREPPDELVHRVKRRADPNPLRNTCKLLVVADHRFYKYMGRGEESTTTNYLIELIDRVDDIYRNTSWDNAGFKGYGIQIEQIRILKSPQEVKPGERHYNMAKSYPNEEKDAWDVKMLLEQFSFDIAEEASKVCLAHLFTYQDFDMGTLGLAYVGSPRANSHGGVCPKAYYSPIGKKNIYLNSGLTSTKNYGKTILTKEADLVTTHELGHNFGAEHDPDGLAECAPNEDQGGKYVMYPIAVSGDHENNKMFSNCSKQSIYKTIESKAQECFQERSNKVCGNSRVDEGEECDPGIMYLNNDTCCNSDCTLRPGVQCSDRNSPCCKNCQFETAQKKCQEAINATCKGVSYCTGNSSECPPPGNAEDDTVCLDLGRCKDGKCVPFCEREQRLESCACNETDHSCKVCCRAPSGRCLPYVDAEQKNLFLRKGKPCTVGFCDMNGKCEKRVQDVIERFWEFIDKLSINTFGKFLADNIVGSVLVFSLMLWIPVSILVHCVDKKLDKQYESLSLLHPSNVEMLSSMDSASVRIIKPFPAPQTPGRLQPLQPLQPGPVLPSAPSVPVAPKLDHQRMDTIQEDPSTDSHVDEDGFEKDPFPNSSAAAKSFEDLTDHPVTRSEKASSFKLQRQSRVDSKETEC

Smiles	Ki
NC(=O)CNC(=O)[C@@H]1CCCCNC(=O)OCCC[C@H](C(=O)NO)[C@@H](Cc2ccc(-c3ccccc3C(F)(F)F)cc2)C(=O)N1	1.5 nM
O=C1NCCCC[C@@H](C(=O)NCC(=O)N2CCOCC2)NC(=O)[C@H](Cc2ccc(-c3cc(Cl)cc(Cl)c3)cc2)[C@@H](C(=O)NO)CCCO1	2.8 nM
O=C1NCCCC[C@@H](C(=O)NCC(=O)N2CCOCC2)NC(=O)[C@H](Cc2ccc(-c3ccccc3C(F)(F)F)cc2)[C@@H](C(=O)NO)CCCO1	2.8 nM
O=C1NCCCC[C@@H](C(=O)NCC(=O)N2CCNCC2)NC(=O)[C@H](Cc2ccc(-c3cccc(C(F)(F)F)c3)cc2)[C@@H](C(=O)NO)CCCO1	3.7 nM
O=C1NCCCC[C@@H](C(=O)NCC(=O)N2CCOCC2)NC(=O)[C@H](Cc2ccc(-c3c(F)cccc3F)cc2)[C@@H](C(=O)NO)CCCO1	6.3 nM
CNC(=O)CNC(=O)[C@@H]1CCCCNC(=O)OCCC[C@H](C(=O)NO)[C@@H](Cc2ccc(-c3ccccc3C(F)(F)F)cc2)C(=O)N1	3.8 nM
O=C1NCCCC[C@@H](C(=O)NCC(=O)N2CCNCC2)NC(=O)[C@H](Cc2ccc(-c3ccccc3C(F)(F)F)cc2)[C@@H](C(=O)NO)CCCO1	1.7 nM
CS(=O)(=O)c1ccccc1-c1ccc(C[C@H]2C(=O)N[C@H](C(=O)NCC(=O)N3CCOCC3)CCCCNC(=O)OCCC[C@@H]2C(=O)NO)cc1	6.5 nM
O=C1NCCCC[C@@H](C(=O)NCC(=O)N2CCNCC2)NC(=O)[C@H](Cc2ccc(-c3cc(C(F)(F)F)cc(C(F)(F)F)c3)cc2)[C@@H](C(=O)NO)CCCO1	4.6 nM
